Exercise: state measured residual activity for each of the compounds provided.
biological target: TXK (human); experiment: radiometric filter-binding kinase assay, Kinase HotSpot; settings: compound 0.5 µM; ATP 10 µM
Give bare numbers, in %.

// solved cases for residual activity follow
compound_string	residual activity [%]
Nc1ccc2ncnc(NCCc3ccc(Oc4ccccc4)cc3)c2c1	102
CCN(CC)CCNC(=O)c1c(C)[nH]c(/C=C2\C(=O)Nc3ccc(F)cc32)c1C	92.6
Cc1ccc(S(=O)(=O)/C=C/C#N)cc1	103
O=C(Nc1cccc(Nc2nccc(Nc3cccc(C(F)(F)F)c3)n2)c1)C1CC1	90.2
CC[n+]1c(/C=C/N(C)c2ccccc2)n(-c2ccccc2)c2ccc(-c3nc4ccccc4s3)cc21	107

# return residual activity for each item in the list
1. O=C1NC(=O)/C(=C/c2ccc3c(c2)OC(F)(F)O3)S1
2. CCOC(=O)c1c(C)[nH]c(/C=C2\C(=O)Nc3ccccc32)c1C
3. O=C1NC(=O)C(c2cn(CCCn3ccnc3)c3ccccc23)=C1Nc1ccccc1

1: 95.4; 2: 96.1; 3: 95.3
